Collected IC50 values appear next to each entry.
target: B*5401 (B54) (Homo sapiens, UniProt P01889, A329T/C349S/D138N/D201E/E176V/E187T/E204Q/E69G/I76V/K202T/L119W/R155S/R180L/S121T/S35A/S48A/V127L/V306I/V36M/Y140L); assay: biochemical
result type: IC50 (nM)

{"structure smiles": "CC[C@H](C)[C@H](NC(=O)[C@H](C)NC(=O)[C@H](CC(C)C)NC(=O)[C@H](CCC(N)=O)NC(=O)[C@@H](NC(=O)[C@H](CCC(=O)O)NC(=O)[C@H](CC(C)C)NC(=O)[C@@H]1CCCN1C(=O)[C@@H](N)CCSC)[C@@H](C)O)C(=O)O", "relational operator": "=", "observed result": 1.6}
{"structure smiles": "CC[C@H](C)[C@H](NC(=O)[C@@H]1CCCN1C(=O)[C@@H](N)CCCCN)C(=O)N[C@H](C(=O)N[C@@H](CCC(N)=O)C(=O)N[C@@H](Cc1ccc(O)cc1)C(=O)N[C@@H](CC(=O)O)C(=O)N[C@@H](CC(N)=O)C(=O)N[C@@H](Cc1ccccc1)C(=O)O)C(C)C", "relational operator": ">", "observed result": 30000}
{"structure smiles": "CC[C@H](C)[C@H](NC(=O)[C@H](CCC(=O)O)NC(=O)[C@H](C)NC(=O)[C@@H]1CCCN1C(=O)[C@@H](N)Cc1ccc(O)cc1)C(=O)N[C@H](C(=O)N[C@@H](CC(C)C)C(=O)N[C@H](C(=O)N[C@@H](Cc1c[nH]c2ccccc12)C(=O)O)[C@@H](C)O)[C@@H](C)O", "relational operator": "=", "observed result": 25}
